Target: neuronal nicotinic receptors (α4β2 subtype high affinity site) (Rattus norvegicus, UniProt P09483+P12390)
Construct: The forebrain (÷cerebellum) from a male Wistar rat (150-250 g) is homogenized; from tissue; host or cells: rat forebrain (without cerebellum) membrane homogenate
Sequence (P09483 31-630): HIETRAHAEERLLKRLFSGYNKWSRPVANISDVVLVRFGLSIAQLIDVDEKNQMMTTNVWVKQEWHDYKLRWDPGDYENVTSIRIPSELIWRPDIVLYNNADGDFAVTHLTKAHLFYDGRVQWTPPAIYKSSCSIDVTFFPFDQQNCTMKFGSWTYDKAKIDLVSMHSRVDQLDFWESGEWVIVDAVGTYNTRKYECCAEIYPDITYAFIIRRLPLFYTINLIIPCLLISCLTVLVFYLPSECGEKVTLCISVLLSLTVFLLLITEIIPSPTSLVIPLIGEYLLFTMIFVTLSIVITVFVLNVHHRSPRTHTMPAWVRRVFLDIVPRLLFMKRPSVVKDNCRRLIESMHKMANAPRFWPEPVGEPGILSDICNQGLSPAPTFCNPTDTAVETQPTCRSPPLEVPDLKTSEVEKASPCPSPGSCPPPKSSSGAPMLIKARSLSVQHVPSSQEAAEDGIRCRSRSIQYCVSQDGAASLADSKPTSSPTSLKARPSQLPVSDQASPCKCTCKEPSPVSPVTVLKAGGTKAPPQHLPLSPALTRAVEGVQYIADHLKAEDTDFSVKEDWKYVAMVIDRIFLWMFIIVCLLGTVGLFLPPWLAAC
Sequence (P12390 25-500): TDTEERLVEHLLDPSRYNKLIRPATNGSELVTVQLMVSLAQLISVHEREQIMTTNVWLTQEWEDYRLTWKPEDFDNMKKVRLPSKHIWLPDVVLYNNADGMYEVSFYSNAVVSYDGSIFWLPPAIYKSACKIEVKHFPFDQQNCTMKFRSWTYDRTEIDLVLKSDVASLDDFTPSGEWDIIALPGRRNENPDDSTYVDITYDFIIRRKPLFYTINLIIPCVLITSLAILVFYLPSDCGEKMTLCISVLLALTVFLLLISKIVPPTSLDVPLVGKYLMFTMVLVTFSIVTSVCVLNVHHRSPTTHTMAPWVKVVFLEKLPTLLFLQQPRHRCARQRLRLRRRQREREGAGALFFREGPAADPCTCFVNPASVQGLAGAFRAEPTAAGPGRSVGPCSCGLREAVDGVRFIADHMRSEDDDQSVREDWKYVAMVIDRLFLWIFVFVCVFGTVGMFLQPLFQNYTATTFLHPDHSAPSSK
Assay: In vitro inhibition of 3H-epibatidin binding
Label scheme, based on IC50: interval 1 = under 90 nM, interval 2 = from 90 nM up to 2000 nM, interval 3 = 2000 nM and over

Into which category would you place c1ccc2ncc(N3CCCNCC3)cc2c1 [Compound 2F, 1-(3-Quinolinyl)-homopiperazine] ?
interval 1

Category of Clc1ccc(N2CCCCNCC2)nn1 [Compound 8B] , please.
interval 2

Bin this entry: COc1cncc(N2CCNCC2)c1 [Compound 3B, 1-(5-Methoxy-3-pyridyl)-piperazine]
interval 3

Which band does CCCCCCOc1cncc(N2CCCN(C)CC2)c1 [Compound 11E] fall in?
interval 2

Bin? CCCCOc1cncc(N2CCNCC2)c1 [Compound 2D, 1-(5-Butoxy-3-pyridyl)piperazine]
interval 2

Tag the class for CN1CCCN(c2cnc3ccccc3c2)CC1 [Compound 2E, 4-Methyl-1-(3-quinolinyl)-homopiperazine]
interval 3

Classify this compound: COc1cncc(N2CCCNCC2)c1 [Compound 1H, 1-(5-Methoxy-3-pyridyl)-homopiperazine]
interval 1

All values here come from patent US6897219B2.
